# Test system: Escherichia coli TOP10;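 note: peptides expressed intracellularly from a pBAD plasmid library in pooled LB shake-flask culture, induced with 0.3% L-arabinose, DNA abundance read by NGS, three biological replicates, DESeq2 with apeglm shrinkage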
# ASSAY NAME: shrunken log2 fold change of peptide-encoding DNA abundance (4.5 h post-induction vs induction); higher = less antimicrobial activity (less host growth inhibition)
# TEST PARAMETERS: time post-induction: 4.5 h; library: site-saturation at positions 5, 18, 19, 20
Documented shrunken log2 fold change across a set of sequences

QUERY SEQUENCE: RRIRNRPPRLPRPRPRPYYCPRP
shrunken log2 fold change: -0.0454

QUERY SEQUENCE: RRIRGRPPRLPRPRPRPWIWPRP
shrunken log2 fold change: 0.236

QUERY SEQUENCE: RRIRRRPPRLPRPRPRPVTKPRP
shrunken log2 fold change: 0.28

QUERY SEQUENCE: RRIRRRPPRLPRPRPRPCYRPRP
shrunken log2 fold change: 0.0724

QUERY SEQUENCE: RRIRMRPPRLPRPRPRPKHNPRP
shrunken log2 fold change: 0.131

QUERY SEQUENCE: RRIRYRPPRLPRPRPRPHAVPRP
shrunken log2 fold change: -0.4

QUERY SEQUENCE: RRIRERPPRLPRPRPRPDMLPRP
shrunken log2 fold change: -0.166

QUERY SEQUENCE: RRIRMRPPRLPRPRPRPGTEPRP
shrunken log2 fold change: 0.562

QUERY SEQUENCE: RRIRGRPPRLPRPRPRPFLRPRP
shrunken log2 fold change: -0.0587

QUERY SEQUENCE: RRIRDRPPRLPRPRPRPYQQPRP
shrunken log2 fold change: -0.184

QUERY SEQUENCE: RRIRSRPPRLPRPRPRPNKHPRP
shrunken log2 fold change: -0.507

QUERY SEQUENCE: RRIRERPPRLPRPRPRPFAAPRP
shrunken log2 fold change: 0.229

QUERY SEQUENCE: RRIRKRPPRLPRPRPRPGNMPRP
shrunken log2 fold change: 0.257

QUERY SEQUENCE: RRIRKRPPRLPRPRPRPAYVPRP
shrunken log2 fold change: 0.108

QUERY SEQUENCE: RRIRSRPPRLPRPRPRPNPQPRP
shrunken log2 fold change: 0.126
